Biological target: PPARα (Homo sapiens (Human), UniProt Q07869)
Sequence (Q07869 whole entry, species assumed): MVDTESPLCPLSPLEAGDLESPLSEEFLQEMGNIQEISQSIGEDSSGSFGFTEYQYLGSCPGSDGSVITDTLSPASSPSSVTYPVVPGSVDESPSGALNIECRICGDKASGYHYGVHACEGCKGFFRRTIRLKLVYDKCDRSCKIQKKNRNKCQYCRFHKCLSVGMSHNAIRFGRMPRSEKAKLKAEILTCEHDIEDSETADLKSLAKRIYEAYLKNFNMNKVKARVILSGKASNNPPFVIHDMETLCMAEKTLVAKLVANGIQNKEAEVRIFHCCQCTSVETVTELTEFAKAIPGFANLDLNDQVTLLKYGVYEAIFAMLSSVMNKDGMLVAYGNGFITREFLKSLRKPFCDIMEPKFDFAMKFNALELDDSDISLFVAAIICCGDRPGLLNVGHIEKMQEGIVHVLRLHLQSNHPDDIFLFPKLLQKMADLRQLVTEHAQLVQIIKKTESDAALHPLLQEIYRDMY
Sequence (P19793 whole entry partner, species assumed): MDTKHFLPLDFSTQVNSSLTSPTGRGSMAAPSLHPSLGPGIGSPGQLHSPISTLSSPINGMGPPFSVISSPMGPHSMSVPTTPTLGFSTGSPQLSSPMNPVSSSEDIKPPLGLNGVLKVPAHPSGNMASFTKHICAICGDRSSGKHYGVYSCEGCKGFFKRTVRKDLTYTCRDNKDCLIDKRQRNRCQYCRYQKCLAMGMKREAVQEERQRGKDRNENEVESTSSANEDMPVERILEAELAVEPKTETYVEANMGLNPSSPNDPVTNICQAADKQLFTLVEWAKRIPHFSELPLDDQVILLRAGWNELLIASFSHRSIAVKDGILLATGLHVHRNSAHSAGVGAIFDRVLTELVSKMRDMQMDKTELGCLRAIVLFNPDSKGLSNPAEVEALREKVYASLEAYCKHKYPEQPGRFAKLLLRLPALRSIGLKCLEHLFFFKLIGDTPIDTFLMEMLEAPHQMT
Test: Nuclear receptor reporter gene (luciferase) screening model, PPARα activation in HepG2 cells
Assay type: cell-based
Conditions: 1 uM; HepG2; solvent control = 1
# Experiment results (relative activation fold) PPARα values compiled below
EXPERIMENTAL READOUT: Experiment results (relative activation fold) PPARα

* CCc1cc(OCCc2nc(-c3ccc(C)cc3)oc2C)ccc1CCC(=O)O | 1.58
* CCc1cc(OCCc2nc(-c3ccc([N+](=O)[O-])cc3)oc2C)ccc1CCC(=O)O | 1.55
* CCc1cc(OCCc2nc(-c3ccc(F)cc3)oc2C)ccc1CCC(=O)O | 1.36
* CCc1cc(OCCc2nc(-c3ccc(C(F)(F)F)cc3)oc2C)ccc1CCC(=O)O | 1.28
* CCc1cc(OCCc2nc(-c3ccc(C(C)(C)C)cc3)oc2C)ccc1CCC(=O)O | 1.65
* CCc1cc(OCCc2nc(-c3ccc(C(N)=O)cc3)oc2C)ccc1CCC(=O)O | 1.56
* CCc1cc(OCCc2nc(-c3ccc(C#N)cc3)oc2C)ccc1CCC(=O)O | 1.41
* CCc1cc(OCCc2nc(-c3ccc(-c4nnn[nH]4)cc3)oc2C)ccc1CCC(=O)O | 1.53
* CCc1cc(OCCc2coc(-c3ccc(C(F)(F)F)cc3)n2)ccc1CCC(=O)O | 1.30

###

Target: PPARδ (Homo sapiens (Human), UniProt Q03181)
Sequence (Q03181 whole entry, species assumed, one chain of several): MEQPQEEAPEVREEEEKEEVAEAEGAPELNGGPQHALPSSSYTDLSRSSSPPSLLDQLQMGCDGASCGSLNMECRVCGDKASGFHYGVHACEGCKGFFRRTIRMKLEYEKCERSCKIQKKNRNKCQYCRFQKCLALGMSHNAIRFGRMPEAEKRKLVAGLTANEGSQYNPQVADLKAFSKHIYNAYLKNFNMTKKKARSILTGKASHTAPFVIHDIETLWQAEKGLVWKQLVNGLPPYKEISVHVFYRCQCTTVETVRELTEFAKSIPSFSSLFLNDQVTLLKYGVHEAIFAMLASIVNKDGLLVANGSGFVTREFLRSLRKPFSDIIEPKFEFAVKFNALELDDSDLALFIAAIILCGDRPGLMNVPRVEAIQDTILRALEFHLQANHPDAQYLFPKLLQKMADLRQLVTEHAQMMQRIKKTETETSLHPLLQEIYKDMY
Assay: Nuclear receptor reporter gene (luciferase) screening model, PPARδ activation in HepG2 cells
Assay type: cell-based
Settings: 0.001 uM; HepG2; solvent control = 1
Some compounds, each annotated with its measured Experiment results (relative activation fold) PPARδ.
EXPERIMENTAL READOUT: Experiment results (relative activation fold) PPARδ

- CCc1cc(OCCc2nc(-c3ccc([N+](=O)[O-])cc3)oc2C)ccc1CCC(=O)O: 1.66
- CCc1cc(OCCc2nc(-c3ccc(C(F)(F)F)cc3)oc2C)ccc1CCC(=O)O: 1.11
- CCc1cc(OCCc2nc(-c3ccc(C(N)=O)cc3)oc2C)ccc1CCC(=O)O: 1.18
- CCc1cc(OCCc2nc(-c3ccc(C(C)(C)C)cc3)oc2C)ccc1CCC(=O)O: 1.45
- CCc1cc(OCCc2nc(-c3ccc(-c4nnn[nH]4)cc3)oc2C)ccc1CCC(=O)O: 0.99
- CCc1cc(OCCc2coc(-c3ccc(C(F)(F)F)cc3)n2)ccc1CCC(=O)O: 1.02
- CCc1cc(OCCc2nc(-c3ccc(C)cc3)oc2C)ccc1CCC(=O)O: 1.57
- CCc1cc(OCCc2nc(-c3ccc(C#N)cc3)oc2C)ccc1CCC(=O)O: 1.65
- CCc1cc(OCCc2nc(-c3ccc(F)cc3)oc2C)ccc1CCC(=O)O: 1.07

###

Experiment results (relative activation fold) PPARδ for assorted molecules
Target: PPARδ (Homo sapiens (Human), UniProt Q03181)
Assay: Nuclear receptor reporter gene (luciferase) screening model, PPARδ activation in HepG2 cells
Type: cell-based
Details: 1 uM; HepG2; solvent control = 1
EXPERIMENTAL READOUT: Experiment results (relative activation fold) PPARδ

• CCc1cc(OCCc2nc(-c3ccc(C(F)(F)F)cc3)oc2C)ccc1CCC(=O)O = 1.34
• CCc1cc(OCCc2nc(-c3ccc(C(C)(C)C)cc3)oc2C)ccc1CCC(=O)O = 3.51
• CCc1cc(OCCc2nc(-c3ccc(F)cc3)oc2C)ccc1CCC(=O)O = 1.40
• CCc1cc(OCCc2nc(-c3ccc(C#N)cc3)oc2C)ccc1CCC(=O)O = 3.94
• CCc1cc(OCCc2nc(-c3ccc(-c4nnn[nH]4)cc3)oc2C)ccc1CCC(=O)O = 1.11
